Item-by-item account of inhibition at 1 µM
biological target: hDGAT1 (Homo sapiens, UniProt O75907); construct: made in house; host or cells: Sf9 insect cells (baculovirus); microsomal fraction; assay: In-vitro DGAT1 assay with hDGAT1 microsomes from Sf9 cells (14C oleoyl CoA, scintillation counting); format: biochemical; conditions: read-out: Percentage inhibition of hDGAT1

{"columns": ["molecule", "inhibition at 1 µM"],
 "data": [
  ["O=C(O)CCCc1nnc(-c2ccc(NC(=O)Nc3ccccc3Cl)cc2)o1", "20 to 50%"],
  ["Cc1cccc(Cl)c1NC(=O)Nc1ccc(-c2cnc(C3CCC(C(=O)O)CC3)s2)cc1 (centres unmarked)", "> 50%"],
  ["O=C(O)CCCc1nnc(-c2ccc(NC(=O)Nc3cccc(C(F)(F)F)c3)cc2)o1", "20 to 50%"],
  ["Cc1nnc(CC2CCC(c3ncc(-c4ccc(N)cc4)s3)CC2)s1 (centres unmarked)", "> 50%"],
  ["CC(C)(Cc1ncc(-c2ccc(NC(=O)Nc3ccc(C(F)(F)F)cc3)cc2)s1)C(=O)O", "> 50%"],
  ["O=C(Nc1ccc(-c2cnc(C3CCC(C(=O)O)CC3)s2)cc1)Nc1cc(F)c(F)cc1F (centres unmarked)", "> 50%"],
  ["O=C(Nc1ccc(-c2cnc(C3CCC(C(=O)O)CC3)s2)cc1)Nc1ccc(Cl)cc1F (centres unmarked)", "> 50%"],
  ["CC(C)(Cc1ncc(-c2ccc(NC(=O)Nc3ccc(F)cc3)cc2)s1)C(=O)O", "20 to 50%"],
  ["O=C(O)CCc1ncc(-c2ccc(NC(=O)NC3CCCCC3)cc2)s1", "> 50%"],
  ["O=C(Nc1ccc(-c2cnc(CNS(=O)(=O)C(F)(F)F)s2)cc1)Nc1c(F)cc(F)cc1F", "> 50%"],
  ["CC(C)(NS(=O)(=O)C(F)(F)F)c1ncc(-c2ccc(NS(=O)(=O)c3ccccc3)cc2)s1", "20 to 50%"],
  ["CC(C)(CCc1ncc(-c2ccc(NC(=O)Nc3nnn[nH]3)cc2)s1)C(=O)O", "20 to 50%"],
  ["O=C(O)CN1CCC(c2ncc(-c3ccc(NC(=O)Nc4ccccc4C(F)(F)F)cc3)s2)CC1", "> 50%"],
  ["CC(C)(CCc1ncc(-c2ccc(NC(=O)N3CCCCC3)cc2)s1)C(=O)O", "20 to 50%"],
  ["CS(=O)(=O)N1CCC(c2ncc(-c3ccc(NC(=O)Nc4cc(F)c(F)cc4F)cc3)s2)CC1", "> 50%"],
  ["CC(C)(C)c1ccc(C(=O)Nc2ccc(-c3cnc(CCC(=O)O)s3)cc2)cc1", "> 50%"],
  ["CC(C)(CCc1ncc(-c2ccc(NC(=O)Nc3cc(F)c(F)cc3F)cc2)s1)C(=O)NS(=O)(=O)C(F)(F)F", "> 50%"],
  ["CC(C)(CCc1ncc(-c2ccc(NC(=O)Nc3cc(F)c(F)c(F)c3)cc2)s1)C(=O)O", "> 50%"],
  ["CC(C)(CCc1ncc(-c2ccc(NC(=O)c3ccc(C(C)(C)C)cc3)cc2)s1)C(=O)O", "> 50%"],
  ["O=C(Nc1ccc(-c2cnc(CCNS(=O)(=O)C(F)(F)F)s2)cc1)c1nc(-c2ccccc2)oc1C(F)(F)F", "> 50%"],
  ["CS(=O)(=O)N1CCC(c2ncc(-c3ccc(NC(=O)Nc4c(F)cc(F)cc4F)cc3)s2)CC1", "20 to 50%"],
  ["CC(C)(CCc1ncc(-c2ccc(NC(=O)Nc3ccc(Cl)cc3Oc3ccccc3)cc2)s1)C(=O)O", "> 50%"],
  ["CC(C)(CCc1ncc(-c2ccc(NC(=O)Nc3ccc4c(c3)OCCO4)cc2)s1)C(=O)O", "> 50%"],
  ["O=C(O)CCCc1nnc(-c2ccc(NC(=O)c3ccc(OC(F)(F)F)cc3)cc2)s1", "20 to 50%"],
  ["O=C(Nc1ccccc1)Nc1ccc(-c2cnc(C3CCC(C(=O)O)CC3)s2)cc1 (centres unmarked)", "> 50%"],
  ["Cc1noc(CC2CCC(c3ncc(-c4ccc(NC(=O)Nc5cc(F)c(F)cc5F)cc4)s3)CC2)n1 (centres unmarked)", "> 50%"],
  ["O=C(O)CCc1ncc(-c2ccc(NC(=O)c3ccc4ccccc4c3)cc2)s1", "> 50%"],
  ["O=C(Nc1ccc(-c2cnc(C3CCC(C(=O)O)CC3)s2)cc1)Nc1cc(F)cc(F)c1 (centres unmarked)", "> 50%"],
  ["O=C(Nc1ccc(-c2cnc(C34CC5CC(CC(C(=O)O)(C5)C3)C4)s2)cc1)Nc1cc(F)c(F)cc1F", "> 50%"],
  ["O=C(O)CCCc1nnc(-c2ccc(NC(=O)Nc3ccc(F)cc3F)cc2)s1", "> 50%"],
  ["CC(=O)NC(=O)CC1CCC(c2ncc(-c3ccc(NC(=O)Nc4cc(F)c(F)cc4F)cc3)s2)CC1 (centres unmarked)", "> 50%"],
  ["CC(C)(NS(=O)(=O)C(F)(F)F)c1ncc(-c2ccc(NC(=O)Nc3cc(F)cc(F)c3)cc2)s1", "> 50%"]
]}

----------
Item-by-item account of inhibition at 1 µM
Target: hDGAT1 (Homo sapiens, UniProt O75907)
Construct: made in house; host or cells: Sf9 insect cells (baculovirus); microsomal fraction
Sequence (O75907 1-488): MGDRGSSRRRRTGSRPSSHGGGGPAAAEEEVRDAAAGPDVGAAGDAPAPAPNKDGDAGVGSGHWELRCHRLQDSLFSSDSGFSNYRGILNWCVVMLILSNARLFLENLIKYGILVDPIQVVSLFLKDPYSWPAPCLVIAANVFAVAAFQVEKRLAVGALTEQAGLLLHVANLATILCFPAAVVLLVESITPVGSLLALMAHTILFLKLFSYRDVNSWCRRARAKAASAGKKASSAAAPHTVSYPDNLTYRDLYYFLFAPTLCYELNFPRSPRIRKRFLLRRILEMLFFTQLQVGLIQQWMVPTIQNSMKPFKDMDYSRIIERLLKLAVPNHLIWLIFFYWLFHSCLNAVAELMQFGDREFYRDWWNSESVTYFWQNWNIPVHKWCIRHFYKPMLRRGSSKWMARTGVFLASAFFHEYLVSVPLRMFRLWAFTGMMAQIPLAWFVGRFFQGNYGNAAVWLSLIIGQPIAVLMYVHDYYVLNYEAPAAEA
Assay: In-vitro DGAT1 assay with hDGAT1 microsomes from Sf9 cells (14C oleoyl CoA, scintillation counting)
Type: biochemical
Settings: read-out: Percentage inhibition of hDGAT1
Structures can show the parent of a compound that is named as a salt.

{"columns": ["compound", "inhibition at 1 µM"],
 "data": [
  ["O=C(Nc1ccc(-c2cnc(C3CCNCC3)s2)cc1)Nc1cc(F)c(F)cc1F [Example 480, hydrochloride]", "20 to 50%"],
  ["Cc1noc(CC2CCC(c3ncc(-c4ccc(NC(=O)Nc5cc(F)cc(F)c5)cc4)s3)CC2)n1 (centres unmarked)", "> 50%"],
  ["O=C(Nc1ccc(Oc2ccccc2)cc1)Nc1ccc(-c2cnc(C3CCC(C(=O)O)CC3)s2)cc1 (centres unmarked)", "> 50%"],
  ["O=C(Nc1ccc(-c2ccn(C3CCC(C(=O)O)CC3)n2)cc1)Nc1cccc(C(F)(F)F)c1 (centres unmarked)", "20 to 50%"],
  ["CC(C)(Cc1ncc(-c2ccc(NC(=O)NC3CCCCC3)cc2)s1)C(=O)O", "20 to 50%"],
  ["O=C(O)CC1CCC(c2ncc(-c3ccc(NC(=O)Nc4cc(F)c(F)c(F)c4)cc3)s2)CC1 (centres unmarked)", "> 50%"],
  ["O=C(Nc1ccc(-c2cnc(CCNS(=O)(=O)C(F)(F)F)s2)cc1)c1ccccc1Cl", "20 to 50%"],
  ["O=C(Nc1ccc(-c2cnc(C3CCNCC3)s2)cc1)Nc1ccc(F)cc1F [Example 478, hydrochloride]", "20 to 50%"]
]}

----------
Item-by-item account of inhibition at 1 µM
molecular target: hDGAT1 (Homo sapiens, UniProt O75907); construct: made in house; host or cells: Sf9 insect cells (baculovirus); microsomal fraction; experiment: In-vitro DGAT1 assay with hDGAT1 microsomes from Sf9 cells (14C oleoyl CoA, scintillation counting); format: biochemical; conditions: read-out: Percentage inhibition of hDGAT1

{"columns": ["compound", "inhibition at 1 µM"],
 "data": [
  ["CC(C)(CCc1ncc(-c2ccc(NC(=O)Nc3ccccc3Cl)cc2)s1)C(=O)NS(=O)(=O)C(F)(F)F", "> 50%"],
  ["CC(C)(CCc1ncc(-c2ccc(NC(=O)Nc3ccccc3F)cc2)s1)C(=O)NS(=O)(=O)C(F)(F)F", "> 50%"],
  ["O=C(Nc1ccc(-c2cnc(C3CCC(C(=O)O)CC3)o2)cc1)Nc1ccccc1Cl (stereo not shown)", "20 to 50%"],
  ["Cc1nnc(CC2CCC(c3ncc(-c4ccc(NC(=O)Nc5ccccc5Cl)cc4)s3)CC2)o1 (stereo not shown)", "20 to 50%"]
]}

Reference source: patent US20130158075A1
